src = paper PMC8881573

biological target: (Ec)FtsY-NG (Escherichia coli, UniProt P10121); construct: purified NG domains of (Ec)Ffh, (Ec)FtsY and (Bs)Ffh; His6 (C); made in house; host or cells: E. coli BL21 (DE3); assay: Microscale thermophoresis (MST) ligand binding; set-up: species or system E. coli; details: (Ec)FtsY KD MST, NG domain labeled with NT 647, 21 °C
Sequence (P10121 197-497): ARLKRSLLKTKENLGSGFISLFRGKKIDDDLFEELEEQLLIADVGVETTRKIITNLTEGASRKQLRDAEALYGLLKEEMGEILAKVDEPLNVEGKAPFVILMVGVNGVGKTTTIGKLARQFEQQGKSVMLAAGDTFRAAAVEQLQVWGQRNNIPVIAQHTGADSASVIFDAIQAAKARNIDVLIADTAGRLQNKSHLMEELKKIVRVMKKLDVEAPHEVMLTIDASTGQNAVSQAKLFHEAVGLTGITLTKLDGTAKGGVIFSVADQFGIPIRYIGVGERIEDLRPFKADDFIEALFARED

# CPD SMILES, Kd
measured = [
    ("Nc1nc2c(ncn2[C@@H]2O[C@H](COP(=O)(O)OP(=O)(O)OP(=O)(O)O)[C@@H](O)[C@H]2O)c(=O)[nH]1", "63.8 µM"),
]

====

biological target: (Bs)Ffh-NG (Bacillus subtilis, UniProt P37105); construct: purified NG domains of (Ec)Ffh, (Ec)FtsY and (Bs)Ffh; His6 (N); made in house; host or cells: E. coli Rosetta pLysS; experiment: Microscale thermophoresis (MST) ligand binding; parameters: species or system B. subtilis; settings: NG domain labeled with NT 647, 21 °C
Sequence (P37105 1-297 limits assumed): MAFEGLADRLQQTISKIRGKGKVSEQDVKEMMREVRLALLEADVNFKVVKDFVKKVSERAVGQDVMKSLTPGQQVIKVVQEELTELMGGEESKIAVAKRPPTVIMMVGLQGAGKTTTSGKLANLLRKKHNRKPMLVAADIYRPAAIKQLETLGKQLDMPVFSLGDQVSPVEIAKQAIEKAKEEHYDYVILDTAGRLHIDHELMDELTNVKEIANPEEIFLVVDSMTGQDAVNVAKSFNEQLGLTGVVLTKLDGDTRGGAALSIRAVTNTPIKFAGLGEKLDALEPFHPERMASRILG
READOUT KIND: Kd (µM)

# CPD SMILES, READOUT KIND, UNIT LABEL, OBSERVED VALUE
data = [
    ("Nc1nc2c(ncn2[C@@H]2O[C@H](COP(=O)(O)OP(=O)(O)OP(=O)(O)O)[C@@H](OP(=O)(O)OP(=O)(O)O)[C@H]2O)c(=O)[nH]1", "Kd", "µM", 27.2),
    ("Nc1nc2c(ncn2[C@@H]2O[C@H](COP(=O)(O)OP(=O)(O)OP(=O)(O)O)[C@@H](O)[C@H]2O)c(=O)[nH]1", "Kd", "µM", 30.3),
    ("Nc1nc2c(ncn2[C@@H]2O[C@H](COP(=O)(O)OP(=O)(O)O)[C@@H](OP(=O)(O)OP(=O)(O)O)[C@H]2O)c(=O)[nH]1", "Kd", "µM", 32.2),
    ("Nc1nc2c(ncn2[C@@H]2O[C@H](COP(=O)(O)OP(=O)(O)O)[C@@H](O)[C@H]2O)c(=O)[nH]1", "Kd", "µM", 9.23),
]
